Data provenance: the RNAGym collection of RNA variant scans (doi:10.7554/elife.80360)

B1: Hairpin Ribozyme (parent)
chain: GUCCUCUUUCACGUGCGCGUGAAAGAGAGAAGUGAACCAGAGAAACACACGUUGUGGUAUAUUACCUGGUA

Variants of: B1
Procedure text: self-cleavage, relative activity (ratio to wild type); higher = more cleavage; co-transcriptional
Reported metric: self-cleavage

As a guide, the following entries are already answered.
{"columns": ["Variant key", "self-cleavage"],
 "data": [
  ["A22C U52C", 1.09],
  ["C10A U60C", 0.579],
  ["U55G C66G", 0.251],
  ["U9A G56A", 0.158]
]}

// A35U U67A : self-cleavage value = 0.126

// self-cleavage value for C6G A35U : 0.464

# self-cleavage of C4A A45G = 0.151

The variant U5A C16A showed self-cleavage equal to 0.281

Record G51A G69U , field self-cleavage: 0.439

The variant A41U U60A showed self-cleavage equal to 1.37

Recorded self-cleavage (variant A23C U55G ): 0.359

variant G19C G56U , self-cleavage observed: 0.0712
